- Target Or Test System: T1, HLA-DR13 molecule (DRB1*1301) (human)
- T1 chain 1: not shown
- T1 chain 2: not shown
- Measurement Protocol: competition ELISA vs biotin-B1 21-36
No end group written: not given here.
Below, each entry is listed with its recorded IC50.
Recorded Endpoint: IC50 (nM)

Binder	Quantity Unit	Recorded Number
TERVRLVTRHIYNREE (not fully specified) [B1 21-36 (nonbiotinylated)]	nM	330
DLLIRCINCQKPLCPEEKQRHL (modifications not checked) [E6(105-126)]	nM	5000
FYSKISEYRHYCYSL (modifications not checked) [E6 76-90]	nM	225
EKQRHLDKKQRFHNIRGRWT (modifications not checked) [E6(121-140)]	nM	1130
QQLLRREVYDFAFRD (modifications not checked) [E6 42-56]	nM	375
TLHEYMLDLQPETTDLYCYEQ (modifications not checked) [E7(7-27)]	nM	7500
